- System: E. coli 7–98
- assay_procedure: Interaction study, checkerboard titration
- Type: cell-based, Escherichia coli
- applied_conditions: antibiotic in combination with MG II (magainin II)
endpoint_label: FIC index
Answer field: number only, no words.

Qu. Any idea what FIC index was measured for C[C@H]1c2cccc(O)c2C(=O)C2=C(O)[C@]3(O)C(=O)C(C(N)=O)=C(O)[C@@H](N(C)C)[C@@H]3[C@@H](O)[C@@H]21 ?
Ans. 2.000

Qu. Also CCN1CCN(C(=O)N[C@@H](C(=O)N[C@@H]2C(=O)N3[C@@H]2SC(C)(C)[C@@H]3C(=O)O)c2ccccc2)C(=O)C1=O , if possible.
Ans. 0.250

Qu. Also CC[C@H]1OC(=O)[C@H](C)[C@@H](O[C@H]2C[C@@](C)(OC)[C@@H](O)[C@H](C)O2)[C@H](C)[C@@H](O[C@@H]2O[C@H](C)C[C@H](N(C)C)[C@H]2O)[C@](C)(OC)C[C@@H](C)C(=O)[C@H](C)[C@@H](O)[C@]1(C)O , if possible.
Ans. 1.500
